tested on: GM04663; experiment: Corrector activity at aberrant splicing of ELP1 gene […] mutant (unknown origin) in human GM04663 cells assessed as increase in exon 20 inclusion at 10 uM by Capillary electrophoresis; type: cell-based
Active and inactive are the calls of the source. The calls are words filed in the database; no cut-off is given here.
Use one of these outcomes when replying: 1 (yes) (active), 0 (no) (inactive)

Hello, I am checking results. What call was entered for `c1ccc(CNc2nc3c(NCc4ccco4)ncnc3[nH]2)cc1` ? 1 (yes)

Record request — test call for `COc1nc2c(NCc3ccco3)ncnc2[nH]1` 1 (yes)

What is the recorded call for this compound in the test? `CN(C)CCOc1nc2c(NCc3ccco3)ncnc2[nH]1` 1 (yes)

Could you please tell me the result logged for `Cn1cnc2nc(Cl)nc(NCc3ccco3)c21` in this assay? 1 (yes)

Short answer needed: outcome of this test for `c1csc(CNc2[nH]cnc3ncnc2-3)c1` ? 0 (no)

Given `c1ccc(Nc2nc3c(NCc4ccco4)ncnc3[nH]2)cc1` , state the outcome it received in this test. 1 (yes)

Hi, do you know how `C=CCNc1nc2c(NCc3ccco3)ncnc2[nH]1` came out in this test? 1 (yes)
